Every entry's value here was drawn from the CheMixHub drug solubility set.

solubility (g/100 g solution) by entry:
# Assay overview: xn = mol fraction of the nth substance listed, in the solute-free solvent
# Measurement context: 303.15 K; x2 = 0.2307
Number only, no unit.

compound="O=c1cc(CBr)c2ccccc2[nH]1 + CCCO + O" result_type="solubility (g/100 g solution)" measured_value=0.146
compound="O=C1C=CC(=O)N1c1ccccc1Br + CC(C)O + O" result_type="solubility (g/100 g solution)" measured_value=7.35
compound="Nc1ncc(Br)nc1Br + CC(C)O + O" result_type="solubility (g/100 g solution)" measured_value=0.273
compound="CC(C)C(=O)Nc1ccc([N+](=O)[O-])c(C(F)(F)F)c1 + CC(C)O + O" result_type="solubility (g/100 g solution)" measured_value=3.45

Now let's try a different one.
[in] Which measured solubility (g/100 g solution) value corresponds to O=c1cc(CBr)c2ccccc2[nH]1 + CC(C)O + O ?
[out] 0.113
